System: SNB-19 CNS
TEST: NCI tumour cell line growth inhibition, 48 h
Reported TGI by item:

Check out these entries, answers already filled in.
N[C@@H](CCC(=O)NCP(=O)(O)O)C(=O)O
> 100 µM
CCOC(=O)c1c(CN2CCCC2)n(-c2ccccc2)c2cc(Br)c(O)cc12
33.3 µM
Nc1ncnc2c1[nH]c(=O)n2-c1ccccc1
> 100 µM
CC1(C(=O)O)CCC2(C)CCC3(C)C(=CC(=O)C4C5(C)CCC(O)C(C)(C)C5CCC43C)C2C1 (stereo not given)
> 100 µM
Nc1nccc(-c2c[nH]c3cc(Br)ccc23)n1
47.5 µM
COc1ccc(C)cc1-c1cc(Sc2ccccc2)c(-c2cc(C)ccc2OC)o1
> 31.6 µM
COC(=O)C(CCCN1C(=O)c2ccccc2C1=O)C(=O)OC
> 100 µM
Cc1csc(-c2nnc(Nc3ccc(Oc4ncccc4-c4ccnc(N)n4)cc3)c3ccccc23)c1
> 100 µM
O=C(/C(=C/c1ccc([N+](=O)[O-])cc1)SCc1ccccc1)c1ccc(Cl)cc1
15.6 µM

// moving on: another record for TGI
Which measured TGI value corresponds to CCCCCCCC/C=C\CCCCCCCCCCCC(=O)O ?
> 64.5 µM
